- assayOverview: Herbicidal activity against semen euphorbiae assessed as inhibition of weed growth at 500 ug/mL measured 15 days post compound treatment by pot-culture method
- Assay type: functional
- runParameters: 360 h; read-out: GI
measuredEndpoint: inhibition of growth at 500 µg/mL (%)

smilestext=CCN(CC)C(=O)n1cnc([Se](=O)(=O)c2ccc(Cl)cc2)n1 units=% experimentalresult=17
smilestext=CCN(CC)C(=O)n1cnc([Se](=O)(=O)c2ccc(F)c(Cl)c2)n1 units=% experimentalresult=39.6
smilestext=CCN(CC)C(=O)n1cnc([Se](=O)(=O)c2c(C)cccc2C)n1 units=% experimentalresult=100

====

- assayOverview: Herbicidal activity against semen euphorbiae assessed as inhibition of weed growth at 500 ug/mL measured 15 days post compound treatment by pot-culture method
- Type: functional
- runParameters: 360 h; read-out: GI
Label scheme for inhibition of growth at 500 µg/mL: lower than 50% is Criterion not met, 50% and above is Criterion met.

smilestext=CCN(CC)C(=O)n1cnc([Se](=O)(=O)c2ccc(F)c(F)c2)n1 labelclass="Criterion not met"
smilestext=CCN(CC)C(=O)n1cnc([Se](=O)(=O)c2ccc([N+](=O)[O-])cc2)n1 labelclass="Criterion not met"
smilestext=CCN(CC)C(=O)n1cnc([Se](=O)(=O)c2ccc(OC)cc2)n1 labelclass="Criterion met"
smilestext=CCN(CC)C(=O)n1cnc([Se](=O)(=O)c2cccc(C(F)(F)F)c2)n1 labelclass="Criterion not met"
smilestext=CCN(CC)C(=O)n1cnc([Se](=O)(=O)c2ccc(F)cc2F)n1 labelclass="Criterion met"
smilestext=CCN(CC)C(=O)n1cnc([Se](=O)(=O)c2ccc(C(F)(F)F)c(Cl)c2)n1 labelclass="Criterion not met"
smilestext=CCN(CC)C(=O)n1cnc([Se](=O)(=O)c2ccccc2)n1 labelclass="Criterion not met"
smilestext=CCN(CC)C(=O)n1cnc([Se](=O)(=O)c2c(C)cc(C)cc2C)n1 labelclass="Criterion met"
smilestext=CCN(CC)C(=O)n1cnc(S(=O)(=O)c2c(C)cc(C)cc2C)n1 labelclass="Criterion met"
